Assay: DPPH free radical scavenging activity
Conditions: concentration scavenging 50% of DPPH radicals; means ± SD of three experiments
readout: log10 of IC50 (log10 of the value in nM)
Response schema: value (number) is log10 of IC50 in units of nM.

Reference set (3 entries):
- CCc1cc(-c2nc3c(ccc4ccccc43)o2)c(O)cc1O [Compound 9]: 2.33
- COC(=O)c1ccc2nc(-c3cc(Cl)c(O)cc3O)oc2c1 [Compound 6]: 2.94
- O=c1c(O)c(-c2ccc(O)c(O)c2)oc2cc(O)cc(O)c12 [quercetin, reference compound]: 1.51

Give measured log10 of IC50 for every item shown.
1. Oc1ccc(-c2nc3c(ccc4ccccc43)o2)c(O)c1 [Compound 8]
2. COC(=O)c1ccc2nc(-c3ccc(O)cc3O)oc2c1 [Compound 3]
3. COC(=O)c1ccc2nc(-c3ccc(O)c(O)c3O)oc2c1 [Compound 7]

Key:
1: 2.66; 2: 2.46; 3: 2.95

# log10 of IC50 of Oc1cc(O)c(-c2nc3c(ccc4ccccc43)o2)cc1Cl [Compound 10] = 2.80

---

Tested on: T47D (breast cancer) cells
Test: SRB antiproliferative assay, T47D
Type: cell-based, human
Details: Homo sapiens, T47D, 72 h, means ± SD
readout: pIC50
Numbers only, as −log10 of the molar value.

* CCc1cc(-c2nc3c(ccc4ccccc43)o2)c(O)cc1O | 5.14

Give measured pIC50 for every item shown.
1. COC(=O)c1ccc2nc(-c3cc(Cl)c(O)cc3O)oc2c1
2. Oc1ccc(-c2nc3c(ccc4ccccc43)o2)c(O)c1
3. Cc1c(O)ccc(-c2nc3ccc(O)cc3o2)c1O
4. COC(=O)c1ccc2nc(-c3ccc(O)cc3O)oc2c1

Key:
1: 5.18; 2: 5.54; 3: 5.28; 4: 5.47

Give measured pIC50 for every item shown.
1. Oc1cc(O)c(-c2nc3c(ccc4ccccc43)o2)cc1Cl
2. CCc1cc(-c2nc3ccc(C(=O)OC)cc3o2)c(O)cc1O
3. COC(=O)c1ccc2nc(-c3ccc(O)c(C)c3O)oc2c1

Key:
5.66
5.39
5.49

---

Would you mind telling me the reported pIC50 of each entry?
Test system: SW707 (rectal adenocarcinoma) cells
Assay: SRB antiproliferative assay, SW707
Format: cell-based, human
Settings: Homo sapiens, SW707, 72 h, means ± SD, read-out: IC50 SW 707
Method: The compounds were also evaluated for their antiproliferative potencies against human cancer cell lines as the potential anticancer agents. […]. The results are presented in Table 3 and expressed as IC50 (μM). In that score, the highest potency was shown by the analogs from the naphtho[1,2-d][1,3]oxazole group 8–10, particularly by derivative 10 with a chlorine atom on the benzenediol moiety. […]
Answers are plain numbers, as −log10 of the molar value.

Reference set (6 entries):
- Oc1ccc(-c2nc3c(ccc4ccccc43)o2)c(O)c1: 5.47
- COC(=O)c1ccc2nc(-c3cc(Cl)c(O)cc3O)oc2c1: 5.22
- Oc1cc(O)c(-c2nc3c(ccc4ccccc43)o2)cc1Cl: 5.54
- CCc1cc(-c2nc3ccc(C(=O)OC)cc3o2)c(O)cc1O: 5.67
- COC(=O)c1ccc2nc(-c3ccc(O)cc3O)oc2c1: 5.26
- CCc1cc(-c2nc3c(ccc4ccccc43)o2)c(O)cc1O: 5.07

Give measured pIC50 for every item shown.
1. COC(=O)c1ccc2nc(-c3ccc(O)c(C)c3O)oc2c1
2. Cc1c(O)ccc(-c2nc3ccc(O)cc3o2)c1O

Key:
1. 5.47
2. 5.36

---

Assay: Lipophilicity by RP-18 HPLC chromatography
Type: physicochemical
Conditions: pH 7.4, extrapolation to pure water as mobile phase
Method: The lipophilicity parameter was estimated for the tested compounds as it is an important feature that influences the pharmacokinetic properties of bioactive compounds [46, 47]. […] HPLC measurements were performed using a liquid chromatograph (Knauer, Berlin, Germany) with a dual pump and a UV-visible detector. […] Retention time of an unretained solute (t0) was determined by the injection of a small amount of acetone dissolved in water. […]
Label Yes when log kw is at or above 4; otherwise label No.

Solved entries (count: 5):
• CCc1cc(-c2nc3c(ccc4ccccc43)o2)c(O)cc1O = Yes
• Oc1cc(O)c(-c2nc3c(ccc4ccccc43)o2)cc1Cl = Yes
• COC(=O)c1ccc2nc(-c3ccc(O)cc3O)oc2c1 = No
• COC(=O)c1ccc2nc(-c3cc(Cl)c(O)cc3O)oc2c1 = Yes
• COC(=O)c1ccc2nc(-c3ccc(O)c(O)c3O)oc2c1 = No

Exercise: Determine whether this compound has log kw no lower than 4: "Oc1ccc(-c2nc3ccccc3o2)c(O)c1"
Key: No

Exercise: Determine whether this compound has log kw no lower than 4: "COC(=O)c1ccc2nc(-c3ccc(O)c(C)c3O)oc2c1"
Key: No

Exercise: Determine whether this compound has log kw no lower than 4: "Cc1c(O)ccc(-c2nc3ccc(O)cc3o2)c1O"
Key: No

Exercise: Determine whether this compound has log kw no lower than 4: "CCc1cc(-c2nc3ccc(C(=O)OC)cc3o2)c(O)cc1O"
Key: No

---

Assay: Lipophilicity by RP-18 HPLC chromatography
Assay type: physicochemical
Settings: MeOH/acetate buffer, pH 7.4
Label Condition met when -S (slope of log k vs MeOH fraction) is at or above 5; otherwise label Condition not met.

Solved entries (count: 5):
• CCc1cc(-c2nc3c(ccc4ccccc43)o2)c(O)cc1O = Condition met
• COC(=O)c1ccc2nc(-c3ccc(O)cc3O)oc2c1 = Condition met
• COC(=O)c1ccc2nc(-c3ccc(O)c(O)c3O)oc2c1 = Condition not met
• Cc1c(O)ccc(-c2nc3ccc(O)cc3o2)c1O = Condition not met
• Oc1ccc(-c2nc3ccccc3o2)c(O)c1 = Condition not met

Exercise: Determine whether this molecule has -S (slope of log k vs MeOH fraction) no lower than 5: "COC(=O)c1ccc2nc(-c3cc(Cl)c(O)cc3O)oc2c1"
Key: Condition met

Exercise: Determine whether this molecule has -S (slope of log k vs MeOH fraction) no lower than 5: "CCc1cc(-c2nc3ccc(C(=O)OC)cc3o2)c(O)cc1O"
Key: Condition met

Exercise: Determine whether this molecule has -S (slope of log k vs MeOH fraction) no lower than 5: "Oc1ccc(-c2nc3c(ccc4ccccc43)o2)c(O)c1"
Key: Condition not met

---

Would you mind telling me the reported Selectivity for AChE of each entry?
Molecular target: Acetylcholinesterase (AChE, E.C. 3.1.1.7, from human erythrocytes) (Homo sapiens)
Construct: Acetylcholinesterase (AChE, E.C. 3.1.1.7, from human erythrocytes); purchased Sigma-Aldrich (Steinheim, Germany); host or cells: human erythrocytes (natural source)
Experiment: biochemical
Conditions: IC50 (BChE)/IC50 (AChE)
One number for each entry.

- COC(=O)c1ccc2nc(-c3cc(Cl)c(O)cc3O)oc2c1 [Compound 6]: 0.394

Give measured Selectivity for AChE for every item shown.
1. COC(=O)c1ccc2nc(-c3ccc(O)c(O)c3O)oc2c1 [Compound 7]
2. Oc1cc(O)c(-c2nc3c(ccc4ccccc43)o2)cc1Cl [Compound 10]
3. CCc1cc(-c2nc3c(ccc4ccccc43)o2)c(O)cc1O [Compound 9]
4. COC(=O)c1ccc2nc(-c3ccc(O)cc3O)oc2c1 [Compound 3]

Key:
[3.644, 1.278, 1.971, 10.017]

---

Would you mind telling me the reported pIC50 of each entry?
Target: Acetylcholinesterase (AChE, E.C. 3.1.1.7, from human erythrocytes) (Homo sapiens, UniProt P22303)
Sequence (P22303 other isoform, or with tags, fused parts or gaps): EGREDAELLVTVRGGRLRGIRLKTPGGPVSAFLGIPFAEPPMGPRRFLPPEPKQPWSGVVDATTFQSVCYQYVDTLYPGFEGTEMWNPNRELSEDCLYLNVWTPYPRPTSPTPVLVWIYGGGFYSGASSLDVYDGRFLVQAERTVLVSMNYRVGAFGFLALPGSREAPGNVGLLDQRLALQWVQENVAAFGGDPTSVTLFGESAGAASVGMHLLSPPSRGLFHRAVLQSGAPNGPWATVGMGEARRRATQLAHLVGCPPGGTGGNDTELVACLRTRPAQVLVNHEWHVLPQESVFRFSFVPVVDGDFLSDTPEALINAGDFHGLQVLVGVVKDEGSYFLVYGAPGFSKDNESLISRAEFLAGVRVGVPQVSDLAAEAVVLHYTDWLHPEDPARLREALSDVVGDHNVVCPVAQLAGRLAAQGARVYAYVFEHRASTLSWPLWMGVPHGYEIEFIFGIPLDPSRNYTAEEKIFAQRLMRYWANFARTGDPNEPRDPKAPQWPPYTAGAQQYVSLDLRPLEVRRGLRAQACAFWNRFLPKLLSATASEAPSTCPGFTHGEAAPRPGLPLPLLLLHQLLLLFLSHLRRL
Numbers only, as −log10 of the molar value.

Reference set (2 entries):
- Oc1ccc(-c2nc3c(ccc4ccccc43)o2)c(O)c1 [Compound 8]: 7.24
- Oc1cc(O)c(-c2nc3c(ccc4ccccc43)o2)cc1Cl [Compound 10]: 6.16

We now examine a further molecule.
# pIC50 of COC(=O)c1ccc2nc(-c3ccc(O)cc3O)oc2c1 [Compound 3] = 6.95
